Test system: LoVo-Dox
Test: SRB colorimetric cell growth inhibition assay, LoVo-Dox (MDR)
Assay type: cell-based
Conditions: Homo sapiens, LOVO-DOX; total growth inhibition (cytostatic effect); read-out: TGI LOVO-DOX
Description: The finality of these assays is to interrupt the growth of an “in vitro” tumor cell culture by means a continued exhibition of the cells to the sample to be testing. A colorimetric type of assay, using sulforhodamine B (SRB) reaction has been adapted for a quantitative measurement of cell growth and viability (following the technique described by P. A. Skehan, et al., J. Natl. Cancer Inst. 1990, 82, 1107-1112). […] The values for mean +/− SD of data from triplicate wells are calculated. […]
Respond with 1 for IC (TGI) values of 8 µM and above, 0 for values below.

COc1cc(-c2c3n(c4c(=O)oc5cc(OC(=O)[C@@H](N)C(C)C)c(OC)cc5c24)CCc2cc(OC(=O)[C@@H](N)C(C)C)c(OC)cc2-3)ccc1OC(=O)[C@@H](N)C(C)C :: 1
COc1cc(-c2c3n(c4c(=O)oc5cc(OC(=O)[C@@H]6CCCN6)c(OC)cc5c24)CCc2c-3cc(OC)c(OC)c2OC(=O)[C@@H]2CCCN2)ccc1OC(=O)[C@@H]1CCCN1 :: 0
COc1cc(-c2c3n(c4c(=O)oc5cc(O)c(OC)cc5c24)CCc2cc(O)c(OC)cc2-3)ccc1O :: 1
COc1cc(-c2c3c4cc(OC)c(O)cc4oc(=O)c3n3ccc4cc(O)c(OC)cc4c23)ccc1O [Compound 3, lamellarin D, reference compound] :: 0
COc1cc(-c2c3c4cc(OC)c(O)cc4oc(=O)c3n3ccc4cc(OC)c(OC)cc4c23)ccc1O :: 0
COc1cc2c(cc1O)oc(=O)c1c2c(-c2cccc([N+](=O)[O-])c2)c2c3cc(OC)c(O)cc3ccn21 :: 1
